test system: UO-31 renal; assay: NCI tumour cell line growth inhibition, 48 h
Exercise: for every item that follows, state its recorded TGI.

Recorded TGI, per entry:
compound=Cc1ccc2ccccc2c1CSc1nc(N)nc2c1ncn2CC(C)C result="13.2 µM"
compound="C[Si](C)(C)OC1(C#N)c2ccccc2CCCC12CCCC2 (stereo unspecified)" result="> 100 µM"
compound=CCCCCCC(=O)NC1=C(N2CC2)C(=O)C(NC(=O)CCCCCC)=C(N2CC2)C1=O result="> 100 µM"
compound=Nc1nc(-c2ccc3c(c2)/C(=C\c2cc(Br)c(O)c(Br)c2)C(=O)N3)cs1 result="> 25 µM"
compound=COc1nn(C)cc1Nc1nccc(-c2c[nH]c3c(NC(=O)[C@@H](C)N4CCN(C)CC4)cccc23)n1 result="> 100 µM"

Could I get TGI for every one of these entries?
1. COc1ccc(C(C2=C(O)CC(C)OC2=O)C2=C(O)CC(C)OC2=O)cc1 (stereo unspecified)
2. COc1cc(OC)c(/C=C/C(=O)c2c(OC)cc(OC)cc2OC)c(OC)c1
3. COc1cc2c(cc1OC)C(Cl)C(c1ccc(Br)cc1)=C2Cl (stereo unspecified)
4. CCN1CCN(c2ccc(NC(=O)Nc3nc4ccc(-c5ccccc5OC)cc4s3)cc2)CC1
5. N#C/C(=C\c1ccc[nH]1)c1cc(-c2ccc(Cl)cc2)nn1-c1ccccc1
6. CC1(c2ccc(F)cc2)C2C(=O)NC(=O)C1C(=O)NC2=O (stereo unspecified)

Key:
> 100 µM
> 100 µM
17.1 µM
2.92 µM
31 µM
> 100 µM
